# testTarget: T1, human wt-ERβ LBD (estrogen receptor beta ligand-binding domain, amino acids 261-502) (human, UniProt Q92731 261-502)
# T1 construct: Cloned into pET-32a; N-terminal thioredoxine-hexahistidine tag removed with TEV protease; not shown: thioredoxin, N-terminal, cleaved; His6, N-terminal, cleaved
# T1 sequence (Q92731 261-502): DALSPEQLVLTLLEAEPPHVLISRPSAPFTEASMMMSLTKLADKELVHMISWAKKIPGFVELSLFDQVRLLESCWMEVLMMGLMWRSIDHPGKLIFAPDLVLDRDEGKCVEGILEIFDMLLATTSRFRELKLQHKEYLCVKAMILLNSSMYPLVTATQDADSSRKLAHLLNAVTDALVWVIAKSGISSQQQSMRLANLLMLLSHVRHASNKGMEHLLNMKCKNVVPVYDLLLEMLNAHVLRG
# assayOverview: fluorescence polarisation; fluorescence anisotropy; 4 nM fluorescein-SRC-1 NR2 peptide, LBD diluted 2-fold from 10 uM (ERα) or 20 uM (ERβ); with TCBPA at 20 uM (ERα) or 40 uM (ERβ); 20 mM Tris pH 8.0, 150 mM NaCl, 5 mM DTT, 10% glycerol
# testConditions: both partners purified
Where no end group is shown, it is not given here. fluorescein = fluorescein label on the N-terminus of the peptide
recordedEndpoint: pKd
Expect pKd as a plain number equal to -log10 of the molar concentration.

What value of pKd has been recorded for this entry: fluorescein-RHKILHRLLQEGS (also called SRC-1 NR2 peptide; fluorescein-labeled SRC-1 NR2 peptide; source: bought: EZbiolab) [fluorescein-RHKILHRLLQEGS peptide corresponding to the NR box 2-binding motif of SRC-1] 5.36

From: paper PMC4256047
